- assayText: Pharmacokinetics assay in SD rats after intragastrical administration
- Assay type: in vivo
- particulars: both sexes, Sprague-Dawley, rat, plasma, po, intragastric, 10 mg/kg, read-out: Apparent Distribution Volume Vz/F
Where a name gives a salt, the structure may show the parent alone.
measuredEndpoint: Vd/F (L/kg)
Respond numerically; units are L/kg and should not be typed.

Need Vd/F, item Fc1cccc(N2CCC(C3c4c(F)cccc4-c4cncn43)CC2)c1 (stereo not shown) [Example 3, trifluoroacetate]
14.1

* * *

Below, each entry is listed alongside its reported IC50.
- targetOfAssay: human TDO (Homo sapiens (Human), UniProt P48775)
- Sequence (P48775 whole entry): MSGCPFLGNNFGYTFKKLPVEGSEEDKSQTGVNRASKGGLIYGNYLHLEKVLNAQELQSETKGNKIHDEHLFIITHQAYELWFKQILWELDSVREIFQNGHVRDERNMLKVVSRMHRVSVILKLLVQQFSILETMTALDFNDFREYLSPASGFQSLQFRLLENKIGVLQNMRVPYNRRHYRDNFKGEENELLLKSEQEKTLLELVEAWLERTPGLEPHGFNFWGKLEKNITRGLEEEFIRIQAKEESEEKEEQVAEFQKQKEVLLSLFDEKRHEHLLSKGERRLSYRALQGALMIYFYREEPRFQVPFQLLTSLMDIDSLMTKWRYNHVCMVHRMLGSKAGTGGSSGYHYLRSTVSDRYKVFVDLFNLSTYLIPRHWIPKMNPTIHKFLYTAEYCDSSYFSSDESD
- assayText: Inhibition activity on human TDO (tryptophan 2,3-dioxygenase) (enzyme assay, absorbance at 480 nm)
- Format: biochemical
- particulars: purified recombinant human TDO, 1 hour at 37° C.; read-out: IC50 for inhibiting the activity of human TDO
Where a name gives a salt, the structure may show the parent alone.
Respond numerically; units are nM and should not be typed.

Use these answered entries as a reference point.
>>> numericvalue("OC[C@@H](O)Cn1cc(-c2ccc(N3CCC(C4c5c(F)cccc5-c5cncn54)CC3)cc2)cn1 (some centres unmarked)")
220
>>> numericvalue("Nc1cc(-c2nnc(N3CCC(C4c5c(F)cccc5-c5cncn54)CC3)s2)ccn1 (centres unmarked) [Example 36, trifluoroacetate]")
104
>>> numericvalue("N#Cc1ccc(N2CCC(C3c4c(F)cccc4-c4cncn43)CC2)cc1F (centres unmarked)")
234

Need IC50, item Fc1cccc2c1C(C1CCN(c3ncc(-c4cnn(C5CCOCC5)c4)cn3)CC1)n1cncc1-2 (centres unmarked)
361

Same question for OCCn1cc(-c2ccc(N3CCC([C@H]4c5c(F)cccc5-c5cncn54)CC3)cc2)cn1 please.
42

Same question for Fc1cccc2c1C(C1CCN(c3ncc(-c4ccccc4)s3)CC1)n1cncc1-2 (centres unmarked) [Example 23, trifluoroacetate] please.
399

Same question for OC[C@H](O)Cn1cc(-c2ccc(N3CCC(C4c5c(F)cccc5-c5cncn54)CC3)cc2)cn1 (some centres unmarked) [Example 30, trifluoroacetate] please.
319

Same question for CS(=O)(=O)N1CCC(Oc2ccc(N3CCC(C4c5c(F)cccc5-c5cncn54)CC3)cc2)CC1 (centres unmarked) please.
243
